Where these numbers come from: ChEMBL document CHEMBL4828728

CC50 at 72 h for assorted molecules
- MEASUREMENT_NOTES: Cytotoxicity against human HepG2 cells assessed as reduction in cell viability measured after 72 hrs by MTT assay
- Format: cell-based
Report the value in µM with no unit label.

Study these solved cases before continuing.
ClC(Cl)(Cl)c1nc2ccccc2nc1Sc1ccccc1 ... 56
COc1ccc(Cl)c(Sc2nc3ccccc3nc2C(Cl)(Cl)Cl)c1 ... 58.4
FC(F)(F)Oc1ccc(Sc2nc3ccccc3nc2C(Cl)(Cl)Cl)cc1 ... 21
Cc1ccc(Sc2nc3ccccc3nc2C(Cl)(Cl)Cl)cc1 ... 69.7

Exercise: Tell me its CC50 at 72 h given Clc1ccccc1Sc1nc2ccccc2nc1C(Cl)(Cl)Cl as the entry.
Key: 36.9

Exercise: Tell me its CC50 at 72 h given Clc1cccc(Sc2nc3ccccc3nc2C(Cl)(Cl)Cl)c1Cl as the entry.
Key: 34.6

Exercise: Tell me its CC50 at 72 h given Fc1ccc(Sc2nc3ccccc3nc2C(Cl)(Cl)Cl)cc1 as the entry.
Key: 30.8

Exercise: Tell me its CC50 at 72 h given Fc1ccccc1Sc1nc2ccccc2nc1C(Cl)(Cl)Cl as the entry.
Key: 40.5

Exercise: Tell me its CC50 at 72 h given O=[N+]([O-])c1ccc(Sc2nc3ccccc3nc2C(Cl)(Cl)Cl)cc1 as the entry.
Key: 19.9

Exercise: Tell me its CC50 at 72 h given Clc1cccc(Sc2nc3ccccc3nc2C(Cl)(Cl)Cl)c1 as the entry.
Key: 38.3

----------
- MEASUREMENT_NOTES: Aqueous solubility of the compound
- Assay type: physicochemical
- RECORDED_CONDITIONS: buffer
METRIC_NAME: solubility

O=[N+]([O-])c1ccc(Sc2nc3ccccc3nc2C(Cl)(Cl)Cl)cc1 ... Soluble
FC(F)(F)Oc1ccc(Sc2nc3ccccc3nc2C(Cl)(Cl)Cl)cc1 ... Soluble
Clc1ccc(Sc2nc3ccccc3nc2C(Cl)(Cl)Cl)c(Cl)c1 ... Soluble
FC(F)(F)c1ccc(Sc2nc3ccccc3nc2C(Cl)(Cl)Cl)cc1 ... Soluble
Fc1ccc(Sc2nc3ccccc3nc2C(Cl)(Cl)Cl)cc1 ... Soluble

Exercise: Tell me its solubility given Cc1ccc(Sc2nc3ccccc3nc2C(Cl)(Cl)Cl)cc1 as the entry.
Key: Soluble

Exercise: Tell me its solubility given Clc1cccc(Sc2nc3ccccc3nc2C(Cl)(Cl)Cl)c1 as the entry.
Key: Soluble

----------
selectivity ratio for assorted compounds
- MEASUREMENT_NOTES: Selectivity index, ratio of CC50 for cytotoxicity against human HepG2 cells to EC50 for antiplasmodial activity against multidrug-resistant Plasmodium falciparum K1 infected in human erythrocytes
- Type: toxicity, cell-based
- RECORDED_CONDITIONS: read-out: Ratio CC50/EC50
// no unit, no text: just the number

Exercise: Tell me its selectivity ratio given ClC(Cl)(Cl)c1nc2ccccc2nc1Sc1ccc(Br)cc1 as the entry.
Key: 93

----------
- MEASUREMENT_NOTES: Cytotoxicity against African green monkey Vero cells assessed as reduction in cell viability measured after 48 hrs by MTT assay
- Assay type: cell-based
- RECORDED_CONDITIONS: chlorocebus sabaeus
METRIC_NAME: CC50 at 48 h (µM)
Report the value in µM with no unit label.

Exercise: Tell me its CC50 at 48 h given ClC(Cl)(Cl)c1nc2ccccc2nc1Sc1ccccc1 as the entry.
Key: 63.5
